Record form. Attribute: pIC50. Fill in for each entry.
- Test system: B16
- protocol.summary: Growth inhibition of mouse B16 2F2 cells after 3 days
- Type: functional, cell-based
- measurement.parameters: B16, 72 h
Answers are plain numbers, as −log10 of the molar value.

Take a look at these entries with their results.
CC1(C)CC[C@]2(C(=O)O)CC[C@]3(C)C(=CC[C@@H]4[C@@]5(C)CC[C@H](O)C(C)(C)[C@@H]5CC[C@]43C)[C@@H]2C1 [OLEANOLIC_ACID]	5.32
C=C(C)[C@@H]1CC[C@]2(C(=O)OC)CC[C@]3(C)[C@H](CC[C@@H]4[C@@]5(C)CC[C@H](O)C(C)(C)[C@@H]5CC[C@]43C)[C@@H]12 [METHYL BETULINATE]	5.31
C=C(C)[C@@H]1CC[C@]2(C(=O)O)CC[C@]3(C)[C@H](CC[C@@H]4[C@@]5(C)CC[C@H](O)C(C)(C)[C@@H]5CC[C@]43C)[C@@H]12 [BETULINIC ACID]	5.10
CC1(C)CC[C@]2(C)CC[C@]3(C)C(=CC[C@@H]4[C@@]5(C)CCC(=O)C(C)(C)[C@@H]5CC[C@]43C)[C@@H]2C1	4.41

Inquiry: Name the recorded pIC50 for C=C(C)[C@@H]1CC[C@]2(CO)CC[C@]3(C)[C@H](CC[C@@H]4[C@@]5(C)CC[C@H](O)C(C)(C)[C@@H]5CC[C@]43C)[C@@H]12 [BETULIN] .
Reply text: 4.56
